Target chain: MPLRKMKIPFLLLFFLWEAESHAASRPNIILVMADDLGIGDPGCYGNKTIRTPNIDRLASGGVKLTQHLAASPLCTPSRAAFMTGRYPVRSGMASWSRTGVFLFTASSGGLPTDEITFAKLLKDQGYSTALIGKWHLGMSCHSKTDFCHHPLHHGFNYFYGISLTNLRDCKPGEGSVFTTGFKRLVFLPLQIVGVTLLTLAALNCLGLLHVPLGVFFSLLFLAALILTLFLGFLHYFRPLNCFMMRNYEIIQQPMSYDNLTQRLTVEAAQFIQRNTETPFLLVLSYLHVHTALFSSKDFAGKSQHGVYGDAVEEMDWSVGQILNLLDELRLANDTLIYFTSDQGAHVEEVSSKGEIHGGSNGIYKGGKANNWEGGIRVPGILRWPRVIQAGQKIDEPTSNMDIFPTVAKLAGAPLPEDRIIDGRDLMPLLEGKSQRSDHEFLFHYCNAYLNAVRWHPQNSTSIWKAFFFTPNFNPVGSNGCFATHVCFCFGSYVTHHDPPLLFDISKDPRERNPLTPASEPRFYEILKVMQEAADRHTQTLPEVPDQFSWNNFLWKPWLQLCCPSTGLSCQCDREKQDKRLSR
pIC50: −log10 of the molar value.
observation-type: pIC50

COC(=O)c1ccc(-c2ccc(OS(N)(=O)=O)cc2)cc1
5.28

P. CCOC(=O)c1ccc(-c2ccc(OS(N)(=O)=O)cc2)cc1
Q. Cc1cc(=O)oc2cc(OS(N)(=O)=O)ccc12 [4-methyl-2-oxo-2H-chromen-7-yl sulfamate]
R. NS(=O)(=O)Oc1ccc(-c2ccccc2)cc1
stdin: Give the ascending ranking of the items by reported pIC50. API: response body holds the labels in the requested order.
stdout: R, Q, P
(R: 4.12, Q: 5.00, P: 5.38)
